Molecular target: hFASN enzyme (full length) (Homo sapiens, UniProt P49327)
Construct: 10 μL hFASN enzyme (full length, 300 ng, purified in house); made in house
Sequence (P49327 whole entry): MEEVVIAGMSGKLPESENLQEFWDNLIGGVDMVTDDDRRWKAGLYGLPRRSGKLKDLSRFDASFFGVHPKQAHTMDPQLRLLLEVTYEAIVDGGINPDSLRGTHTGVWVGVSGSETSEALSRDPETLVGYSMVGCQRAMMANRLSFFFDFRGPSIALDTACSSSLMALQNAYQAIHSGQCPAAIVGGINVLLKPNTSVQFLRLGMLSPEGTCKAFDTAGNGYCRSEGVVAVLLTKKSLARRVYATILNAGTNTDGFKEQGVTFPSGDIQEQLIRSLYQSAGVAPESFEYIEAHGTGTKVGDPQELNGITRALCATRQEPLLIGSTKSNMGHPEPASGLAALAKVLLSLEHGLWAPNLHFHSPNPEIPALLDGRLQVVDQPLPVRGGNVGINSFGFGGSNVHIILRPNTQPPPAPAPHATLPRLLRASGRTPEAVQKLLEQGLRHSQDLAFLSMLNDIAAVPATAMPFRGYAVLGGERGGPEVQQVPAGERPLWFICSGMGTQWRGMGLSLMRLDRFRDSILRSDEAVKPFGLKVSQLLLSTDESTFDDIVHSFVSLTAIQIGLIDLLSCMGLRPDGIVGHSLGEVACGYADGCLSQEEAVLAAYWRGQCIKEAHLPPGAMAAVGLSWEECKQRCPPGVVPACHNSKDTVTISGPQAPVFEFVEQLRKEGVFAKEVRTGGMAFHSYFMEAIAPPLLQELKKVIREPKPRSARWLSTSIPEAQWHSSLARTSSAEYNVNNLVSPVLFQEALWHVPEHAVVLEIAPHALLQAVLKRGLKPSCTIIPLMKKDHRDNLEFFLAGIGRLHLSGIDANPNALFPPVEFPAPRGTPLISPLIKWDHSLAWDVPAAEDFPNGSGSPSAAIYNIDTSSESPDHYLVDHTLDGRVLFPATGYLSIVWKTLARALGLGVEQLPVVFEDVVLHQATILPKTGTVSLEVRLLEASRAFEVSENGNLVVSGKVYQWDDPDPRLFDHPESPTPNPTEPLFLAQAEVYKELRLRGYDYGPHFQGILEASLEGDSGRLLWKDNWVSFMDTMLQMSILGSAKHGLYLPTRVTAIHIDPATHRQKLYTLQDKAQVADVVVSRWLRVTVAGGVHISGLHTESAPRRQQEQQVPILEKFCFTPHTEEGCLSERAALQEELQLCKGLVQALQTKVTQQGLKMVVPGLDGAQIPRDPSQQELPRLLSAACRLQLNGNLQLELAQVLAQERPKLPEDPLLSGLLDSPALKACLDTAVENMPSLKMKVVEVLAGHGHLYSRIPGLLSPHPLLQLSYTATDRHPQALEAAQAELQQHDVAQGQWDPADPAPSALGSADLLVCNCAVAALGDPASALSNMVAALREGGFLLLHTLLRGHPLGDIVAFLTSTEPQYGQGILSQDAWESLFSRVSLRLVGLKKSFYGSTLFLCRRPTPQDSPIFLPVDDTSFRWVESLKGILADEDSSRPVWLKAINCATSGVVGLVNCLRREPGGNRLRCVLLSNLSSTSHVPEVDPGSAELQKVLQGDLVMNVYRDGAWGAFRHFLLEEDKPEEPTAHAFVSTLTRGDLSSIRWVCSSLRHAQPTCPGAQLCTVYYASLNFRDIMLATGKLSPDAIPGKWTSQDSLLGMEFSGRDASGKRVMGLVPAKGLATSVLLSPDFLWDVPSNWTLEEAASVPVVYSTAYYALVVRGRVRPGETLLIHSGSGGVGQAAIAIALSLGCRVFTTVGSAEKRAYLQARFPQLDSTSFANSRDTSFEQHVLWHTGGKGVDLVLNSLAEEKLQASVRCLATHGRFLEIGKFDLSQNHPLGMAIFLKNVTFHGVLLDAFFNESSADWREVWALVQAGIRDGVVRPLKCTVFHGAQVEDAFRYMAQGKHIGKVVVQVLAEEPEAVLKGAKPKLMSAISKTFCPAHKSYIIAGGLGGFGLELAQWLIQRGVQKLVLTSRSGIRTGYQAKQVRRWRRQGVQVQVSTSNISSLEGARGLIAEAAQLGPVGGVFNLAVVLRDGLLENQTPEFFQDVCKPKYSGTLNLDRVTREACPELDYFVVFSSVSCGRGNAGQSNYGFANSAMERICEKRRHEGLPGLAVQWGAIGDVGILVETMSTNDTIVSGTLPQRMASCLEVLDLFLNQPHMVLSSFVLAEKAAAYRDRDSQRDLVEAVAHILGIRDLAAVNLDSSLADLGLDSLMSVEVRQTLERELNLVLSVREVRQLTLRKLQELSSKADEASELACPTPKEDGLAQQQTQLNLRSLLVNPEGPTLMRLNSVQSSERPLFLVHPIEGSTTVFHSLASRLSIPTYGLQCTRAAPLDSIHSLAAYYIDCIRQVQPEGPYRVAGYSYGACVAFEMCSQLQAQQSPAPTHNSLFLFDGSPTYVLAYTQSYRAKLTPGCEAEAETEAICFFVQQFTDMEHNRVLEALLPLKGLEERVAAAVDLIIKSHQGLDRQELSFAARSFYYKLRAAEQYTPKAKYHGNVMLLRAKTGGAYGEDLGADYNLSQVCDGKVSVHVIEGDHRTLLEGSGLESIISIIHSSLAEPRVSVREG
Test: Fatty Acid Synthase (FASN) inhibition scintillation proximity assay
Assay type: biochemical
Details: read-out: Human FASN pIC50 (converted)
Protocol: In this assay, inhibition of FASN activity is measured using ^3H-acetyl-CoA and malonyl-CoA as substrates. ^3H-Acetyl CoA is converted to ^3H-palmitate through a series of reactions by the FASN protein, which contains 7 functional domains and carries out 7 enzymatic reactions to ultimately produce ^3H-palmitate. The assay principle is based upon the fact that ^3H-acetyl-CoA is hydrophilic and the end product, ^3H-palmitate is hydrophobic. […]
Readings of IC50 for the listed compounds

query_smiles | IC50
CN1CCN(c2cc(-c3ccc(C4=NC5(CCCC5)C(=O)N4C[C@@H]4CCN(C(=O)C5CC5)C4)cc3)ccn2)CC1 | > 10 µM

input: Which IC50 is listed for `O=C(N1CC[C@@H](CN2C(=O)C3(CCOCC3)N=C2c2ccc(-c3ccc4occc4c3)cc2)C1)C(F)(F)F` ?
output: ~7.59 µM

input: Entry to check: `COC(=O)N1CC2(C1)N=C(c1ccc(-c3ccc4c(cnn4C)c3)cc1)N(C[C@@H]1CCN(S(C)(=O)=O)C1)C2=O`
output: > 10 µM

input: What about this compound? `Cn1cc(-c2ccc(-c3ccc(C4=NC5(CCOCC5)C(=O)N4CC4CN(S(C)(=O)=O)C4)cc3)cc2)cn1`
output: > 10 µM

input: Another: `Cc1cc(-c2cccc(S(=O)(=O)C(C)C)c2)ccc1C1=NC2(CC2)C(=O)N1CC1CN(C(=O)C2CC2)C1`
output: > 10 µM

input: Please answer likewise for `Cn1nccc1-c1ccc(-c2ccc(C3=NC4(CC4)C(=O)N3CC3CCN(C(=O)C4CC4)CC3)cc2)cc1`
output: > 10 µM
